MEASURED_ON: T1, human NKG2A on cells (human, UniProt P26715 1-233)
T1 construct: also called hNKG2A; CHO-hNKG2A
METHOD_NOTES: flow cytometry on CHO cells expressing human NKG2A, anti-human IgG-PE
VALUE_KIND: pEC50
Schema: pEC50 number; meaning minus log10 of the concentration expressed in molar units.

{"BINDER": "1G5.B2 antibody (antibody, human IgG1, kappa, V domains shown, Hybridoma antibody; printed as IG5.B2 in two paragraphs; also called IG5.B2) VH: QVQLVESGGGVVQPGRSLRLSCAASGFTFSDYAMHWVRQTPGRGLEWLTFISYDGSNKYHADSVKGRFTISRDNSKNTLFLQMNSLRAEDTAVYYCARDSWDRGYFDLWGRGTLVTVSS VL: EIVLTQSPATLSLSPGERATLSCRASQSVSSYLAWYQQKPGQAPRLLIYDASNRATGIPARFSGSGSGTDFTLTISSLEPEDFAVYYCQQRSNWWTFGQGTKVEIKR", "OBSERVED_RESULT": 9.22}
{"BINDER": "11H9.A1 antibody (antibody, human IgG1, kappa, V domains shown, Hybridoma antibody; also called 11H9.A4) VH: EVQLVESGGGLVKPGGSLRLSCAASGFTFSSYSMNWVRQAPGKGLEWVSSISSSSSYIYYADSVKGRFTISRDNAKNSLYLQMNSLRAEDTAVYYCARLLWFGEIFDYWGQGTLVTVSS VL: AIQLTQSPSSLSASVGDRVTITCRASQGISSALAWYQQKPGKAPKLLIYDASSLKSGVPSRFSGSGSGTDFTLTISSLQPEDFATYYCQQFNSYPITFGQGTRLEIKR", "OBSERVED_RESULT": 9.15}

Q: Please report the measured pEC50 for NKG2A.5 antibody (antibody, V domains shown, also called recombinant 11H9.A4) VH: EVQLVESGGGLVKPGGSLRLSCAASGFTFSSYSMNWVRQAPGKGLEWVSSISSSSSYIYYADSVKGRFTISRDNAKNSLYLQMNSLRAEDTAVYYCARLLWFGEIFDYWGQGTLVTVSS VL: AIQLTQSPSSLSASVGDRVTITCRASQGISSALAWYQQKPGKAPKLLIYDASSLKSGVPSRFSGSGSGTDFTLTISSLQPEDFATYYCQQFNSYPITFGQGTRLEIK
A: 9.52
